Quick list: viability, T/C per entry.
System: 598228-144-R-J1-PDC complex spheroids, viability;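 also: spheroids exposed to compounds for seven days before readout; 100% = DMSO vehicle control wells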
test: Anticancer human tumor 598228-144-R-J1-PDC patient-derived serous endometrial adenocarcinoma cell line growth inhibition [CLK]
details: second compound 0.0316 µM; first compound 1 µM; stronger effect = lower value
Just the number in %, nothing appended.

These recorded examples may help you get a feel for the data.
{"compound": "CCN1CCN(Cc2ccc(Nc3ncc(F)c(-c4cc(F)c5nc(C)n(C(C)C)c5c4)n3)nc2)CC1 + CN1CCN(c2cc(C(=O)Nc3cc4cc(-c5cnn(C)c5)ccc4cn3)ccn2)CC1", "unit": "%", "viability, T/C": 103}
{"compound": "Nc1ccccc1NC(=O)c1ccc(CNC(=O)OCc2cccnc2)cc1 + CN1CCN(c2cc(C(=O)Nc3cc4cc(-c5cnn(C)c5)ccc4cn3)ccn2)CC1", "unit": "%", "viability, T/C": 68.2}
{"compound": "COc1cccc2c1C(=O)c1c(O)c3c(c(O)c1C2=O)CC(O)(C(=O)CO)CC3OC1CC(N)C(O)C(C)O1 (stereo not given) + CNC(=O)c1ccc(Nc2nc(OC3CCCC3)c3c(-c4ccc5nc(C)oc5c4)c[nH]c3n2)c(OC)c1", "unit": "%", "viability, T/C": 11.3}
{"compound": "CC(CO)NC(=O)c1cc(-c2ccc(Cl)cc2)nn(-c2cnn(C)c2)c1=O (stereo not given) + CNC(=O)c1ccc(Nc2nc(OC3CCCC3)c3c(-c4ccc5nc(C)oc5c4)c[nH]c3n2)c(OC)c1", "unit": "%", "viability, T/C": 104}

# ---- query compound ----
Short answer please: viability, T/C, 598228-144-R-J1-PDC complex spheroids, viability, entry CC(CO)NC(=O)c1cc(-c2ccc(Cl)cc2)nn(-c2cnn(C)c2)c1=O (stereo not given) + CN1CCN(c2cc(C(=O)Nc3cc4cc(-c5cnn(C)c5)ccc4cn3)ccn2)CC1
120
